Molecular target: UniProtKB P42574
Sequence (P42574 29-175 limits assumed): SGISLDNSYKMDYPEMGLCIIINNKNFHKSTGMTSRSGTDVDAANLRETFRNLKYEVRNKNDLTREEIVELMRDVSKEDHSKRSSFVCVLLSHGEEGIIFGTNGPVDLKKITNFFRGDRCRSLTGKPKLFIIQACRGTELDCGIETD
Sequence (P42574 176-277 limits assumed): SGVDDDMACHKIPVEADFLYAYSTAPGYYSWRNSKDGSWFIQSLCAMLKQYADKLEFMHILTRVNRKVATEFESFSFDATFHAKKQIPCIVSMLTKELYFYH
Assay: Inhibition of recombinant CPP32 (unknown origin) assessed as ratio of irreversible rate constant K3 to dissociation constant of the reversible binding step Ki pre-incubated for 60 mins with Acetyl-Tyr-Val-Ala-Asp-amino-4-methylcoumarin substrate followed by enzyme addition by fluorescence based assay
Where a SMILES comes first, the peptide text is derived from it. The star is where a group is joined. Cbz = O=C(OCc1ccccc1)*; CH2F = FC*
Entry flag: Met if Ratio reaches 40000 M⁻¹ s⁻¹; Not met if it does not.

Could you verify whether the entry CC(C)[C@H](NC(=O)C(=O)Nc1c(F)c(F)nc(F)c1F)C(=O)N[C@@H](CC(=O)O)C(=O)COc1c(F)c(F)cc(F)c1F shows Ratio of no less than 40000 M⁻¹ s⁻¹?
Met

Could you verify whether the entry CC(C)[C@H](NC(=O)C(=O)NCCc1ccccc1)C(=O)N[C@@H](CC(=O)O)C(=O)COc1c(F)c(F)cc(F)c1F shows Ratio of no less than 40000 M⁻¹ s⁻¹?
Not met

Could you verify whether the entry CCCCCCCc1ccc(NC(=O)C(=O)N[C@H](C(=O)N[C@@H](CC(=O)O)C(=O)COc2c(F)c(F)cc(F)c2F)C(C)C)cc1 shows Ratio of no less than 40000 M⁻¹ s⁻¹?
Not met

Could you verify whether the entry C[C@H](NC(=O)C(=O)NCc1cccc2ccccc12)C(=O)N[C@@H](CC(=O)O)C(=O)COP(=O)(c1ccccc1)c1ccccc1 shows Ratio of no less than 40000 M⁻¹ s⁻¹?
Met

Could you verify whether the entry CC(C)[C@H](NC(=O)C(=O)Nc1nc2ccccc2[nH]1)C(=O)N[C@@H](CC(=O)O)C(=O)COc1c(F)c(F)cc(F)c1F shows Ratio of no less than 40000 M⁻¹ s⁻¹?
Not met

Could you verify whether the entry C[C@H](NC(=O)C(=O)NC1CCCCC1)C(=O)N[C@@H](CC(=O)O)C(=O)COC(=O)c1c(Cl)cccc1Cl shows Ratio of no less than 40000 M⁻¹ s⁻¹?
Met

Could you verify whether the entry CC(C)[C@H](NC(=O)OCc1ccccc1)C(=O)N[C@@H](C)C(=O)N[C@@H](CC(=O)O)C(=O)CF (Cbz-Val-Ala-Asp-CH2F) shows Ratio of no less than 40000 M⁻¹ s⁻¹?
Not met

Could you verify whether the entry CC(C)[C@H](NC(=O)C(=O)Nc1ccccc1-c1ccccc1)C(=O)N[C@@H](CC(=O)O)C(=O)COc1c(F)c(F)cc(F)c1F shows Ratio of no less than 40000 M⁻¹ s⁻¹?
Not met

Could you verify whether the entry C[C@H](NC(=O)C(=O)Nc1cc(C(C)(C)C)ccc1C(C)(C)C)C(=O)N[C@@H](CC(=O)O)C(=O)COC(=O)c1c(Cl)cccc1Cl shows Ratio of no less than 40000 M⁻¹ s⁻¹?
Met

Could you verify whether the entry C[C@H](NC(=O)C(=O)NCc1ccccc1)C(=O)N[C@@H](CC(=O)O)C(=O)COC(=O)c1c(Cl)cccc1Cl shows Ratio of no less than 40000 M⁻¹ s⁻¹?
Met

Could you verify whether the entry CC(C)[C@H](NC(=O)C(=O)Nc1ccccc1Cc1ccccc1)C(=O)N[C@@H](CC(=O)O)C(=O)COc1c(F)c(F)cc(F)c1F shows Ratio of no less than 40000 M⁻¹ s⁻¹?
Met

Could you verify whether the entry CC(C)[C@H](NC(=O)C(=O)Nc1ccccn1)C(=O)N[C@@H](CC(=O)O)C(=O)COc1c(F)c(F)cc(F)c1F shows Ratio of no less than 40000 M⁻¹ s⁻¹?
Not met

Could you verify whether the entry CC(C)[C@H](NC(=O)C(=O)Nc1ccccc1)C(=O)N[C@@H](CC(=O)O)C(=O)COc1c(F)c(F)cc(F)c1F shows Ratio of no less than 40000 M⁻¹ s⁻¹?
Not met

Could you verify whether the entry C[C@H](NC(=O)C(=O)Nc1cc(C(C)(C)C)ccc1C(C)(C)C)C(=O)N[C@@H](CC(=O)O)C(=O)COc1c(F)c(F)cc(F)c1F shows Ratio of no less than 40000 M⁻¹ s⁻¹?
Met

Could you verify whether the entry C[C@H](NC(=O)C(=O)NCCc1ccccc1)C(=O)N[C@@H](CC(=O)O)C(=O)COP(=O)(c1ccccc1)c1ccccc1 shows Ratio of no less than 40000 M⁻¹ s⁻¹?
Met

Could you verify whether the entry C[C@H](NC(=O)C(=O)Nc1ccccc1F)C(=O)N[C@@H](CC(=O)O)C(=O)COc1c(F)c(F)cc(F)c1F shows Ratio of no less than 40000 M⁻¹ s⁻¹?
Met

Could you verify whether the entry CC(C)[C@H](NC(=O)C(=O)Nc1ccccc1F)C(=O)N[C@@H](CC(=O)O)C(=O)COc1c(F)c(F)cc(F)c1F shows Ratio of no less than 40000 M⁻¹ s⁻¹?
Not met
